Reference for the values: the antibiotic and cytotoxicity screens of Wong et al. (2023)

System: HSkMC
Experiment: cytotoxicity call (relative viability < 0.9)
Conditions: 10 µM
Hit rate of the full screen: of about 39,000 compounds, about 1,500 (3.8%) were called active. The sample as a whole holds a higher share of actives than the screen did.
Outcomes you can answer with include only these: active, inactive

Cc1noc(C)c1S(=O)(=O)Nc1ccc2c(c1)C(=O)N([C@H](C)CO)C[C@@H](C)[C@H](CN(C)S(=O)(=O)c1cn(C)cn1)OCCCC[C@@H](C)O2 ... inactive
C[C@@H]1CN([C@H](C)CO)C(=O)c2cc(NC(=O)CCC(F)(F)F)ccc2O[C@@H](C)CCCCO[C@@H]1CN(C)Cc1ccc(Cl)c(Cl)c1 ... active
CCCNC(=O)Nc1ccc2c(c1)C(=O)N(C)C[C@@H](OC)[C@H](C)CN(Cc1ccc(-c3ccccn3)cc1)[C@H](C)CO2 ... inactive
C[C@H]1CCCCO[C@H](CN(C)Cc2ccc(Cl)c(Cl)c2)[C@@H](C)CN([C@@H](C)CO)C(=O)c2cc(NC(=O)CCC(F)(F)F)ccc2O1 ... inactive
Cc1cc(C)c(-c2ccc(NC(=O)[C@H](Cc3ccc(C(=O)NCCS(=O)(=O)O)cc3)c3ccc(-c4ccc(C(C)(C)C)cc4)cc3)cc2)c(C)c1 ... active
Cc1noc(C)c1NC(=O)Nc1ccc2c(c1)C(=O)N([C@H](C)CO)C[C@@H](C)[C@H](CN(C)Cc1ccc(Cl)c(Cl)c1)OCCCC[C@@H](C)O2 ... inactive
COc1ccc(C#Cc2ccc([C@@H]3[C@@H](CO)N4CCCCN(S(=O)(=O)c5cn(C)cn5)C[C@@H]34)cc2)cc1 ... active
C[C@@H]1CN([C@H](C)CO)C(=O)c2cc(NC(=O)Nc3ccccc3)ccc2O[C@@H](C)CCCCO[C@H]1CN(C)Cc1ccc(Cl)c(Cl)c1 ... active
COc1ccc(C#Cc2ccc([C@H]3[C@@H](CO)N4CCCCN(S(=O)(=O)c5cn(C)cn5)C[C@@H]34)cc2)cc1 ... inactive
C[C@@H]1CN([C@H](C)CO)C(=O)c2cc(NC(=O)CCC(F)(F)F)ccc2O[C@@H](C)CCCCO[C@H]1CN(C)Cc1ccc(Cl)c(Cl)c1 ... active

Write down the call the test reported for this molecule. Item: COc1ccc(-c2cn(CCNC(=O)[C@H](Cc3ccccc3)NS(=O)(=O)c3ccc(C)cc3)nn2)cc1OC
inactive

Field: outcome | Entry: COc1ccc(C#Cc2ccc([C@H]3[C@H]4CN(S(=O)(=O)c5cn(C)cn5)CCCCN4[C@H]3CO)cc2)cc1
inactive

Each molecule tested received a call. Report the one for C[C@@H]1CCCCO[C@@H](CN(C)Cc2ccc(Cl)c(Cl)c2)[C@H](C)CN([C@H](C)CO)C(=O)c2cc(NC(=O)CCC(F)(F)F)ccc2O1 .
inactive

Outcome logged for CO[C@H](CN(C)S(=O)(=O)c1cccc(Cl)c1)[C@H](C)CN([C@H](C)CO)S(=O)(=O)c1ccc(Cl)cc1 in this assay:
inactive

Just curious, what result did C[C@H]1CCCCO[C@H](CN(C)Cc2ccc(Cl)c(Cl)c2)[C@@H](C)CN([C@@H](C)CO)C(=O)c2cc(NC(=O)Nc3ccc(F)cc3)ccc2O1 get here?
inactive

---

System: HSkMC
Test: cytotoxicity call (relative viability < 0.9)
Conditions: 10 µM
Screen size: about 39,000 compounds; about 1,500 (3.8%) were called active. For the sample, actives were picked, then their nearest neighbours and some compounds at random.
Write down the outcome that applies. Available outcomes: 1 = active, 0 = inactive

Solved entries:
Nc1nc(F)nc2c1ncn2[C@@H]1O[C@H](CO)[C@@H](O)[C@H]1O ... 1
Nc1ncnc2c1c(I)cn2[C@H]1O[C@@H](CO)[C@@H](O)[C@@H]1O ... 0

Recorded call for C[C@H](CO)N1C[C@H](C)[C@H](CN(C)S(=O)(=O)c2ccccc2)Oc2ccc(NC(=O)Cc3ccccc3)cc2C1=O ?
0

Lab log entry: C[C@H](CO)N1C[C@H](C)[C@H](CN(C)C(=O)Nc2cccc3ccccc23)Oc2ccc(NC(=O)Nc3ccccc3)cc2C1=O — outcome as called in the assay?
0

---

System: HSkMC
Experiment: cytotoxicity call (relative viability < 0.9)
Conditions: 10 µM
Hit rate of the full screen: of about 39,000 compounds, about 1,500 (3.8%) were called active. This excerpt belongs to a sample that is enriched for actives.
Permitted responses: active, inactive

For orientation, consider the following solved cases.
CC12CCC3c4ccc(O)cc4CCC3C1CCC2OC(=O)CCC1CCCC1 (stereo not given) ... active
C[C@H](CO)N1C[C@H](C)[C@H](CN(C)C(=O)c2cnccn2)Oc2cc(Br)ccc2S1(=O)=O ... inactive
CC(C)(C)S(=O)N1Cc2cc(C(=O)NCc3ccc4c(c3)OCO4)nc(-c3cccc(-c4cccc(F)c4)c3)c2[C@H]1CCO (stereo not given in full) ... inactive
Cc1noc(C)c1S(=O)(=O)Nc1ccc2c(c1)C(=O)N([C@H](C)CO)C[C@@H](C)[C@@H](CN(C)S(C)(=O)=O)OCCCC[C@H](C)O2 ... inactive
C[C@@H]1CN([C@@H](C)CO)C(=O)c2cc(NC(=O)Nc3ccc(C(F)(F)F)cc3)ccc2O[C@@H]1CN(C)Cc1ccc(C(F)(F)F)cc1 ... active
C[C@H](CO)N1C[C@H](C)[C@H](CN(C)Cc2ccc(C(F)(F)F)cc2)Oc2ccc(NC(=O)Nc3ccc(C(F)(F)F)cc3)cc2C1=O ... active
C[C@@H]1CN([C@@H](C)CO)C(=O)c2c(c3ccccc3n2C)-c2ccccc2CO[C@@H]1CN(C)Cc1ccc(C(=O)O)cc1 ... inactive
Nc1ccn([C@H]2O[C@@H](CO)[C@@H](O)[C@@H]2O)c(=O)n1 ... inactive

What call does the record list for C[C@H](CO)N1C[C@H](C)[C@@H](CN(C)Cc2ccc(C(F)(F)F)cc2)Oc2ccc(NC(=O)Nc3ccc(C(F)(F)F)cc3)cc2C1=O ?
inactive

Short answer needed: outcome of this test for Cc1ccc(S[C@]2(C(=O)O)CC(=O)N(Cc3ccccc3C(F)(F)F)[C@@H]2c2ccc(CO)cc2)cc1 ?
inactive

Per the assay record, what outcome was assigned to C[C@H]1CN([C@@H](C)CO)C(=O)Cc2cc(NC(=O)Nc3cccc4ccccc34)ccc2O[C@H]1CN(C)C(=O)Nc1ccccc1 ?
inactive

Which outcome was entered for the compound Cc1ccc(S(=O)(=O)N(C)C[C@H]2Oc3ncc(Br)cc3C(=O)N([C@H](C)CO)C[C@H]2C)cc1 in this test?
inactive

---

System: HSkMC
Assay: cytotoxicity call (relative viability < 0.9)
Conditions: 10 µM
Screen size: about 39,000 compounds; about 1,500 (3.8%) were called active. This is one part of a sample in which actives are shown more often than they occur.
The reply should be one of these categories: t for active, f for inactive

Please review the entries below; each comes with its answer.
CN(c1ncccc1CNc1nc(Nc2ccc3c(c2)CC(=O)N3)ncc1C(F)(F)F)S(C)(=O)=O ... t
C[C@H](CO)N1C[C@H](C)[C@H](CN(C)Cc2ccc(-c3ccccc3)cc2)Oc2ccc(NS(=O)(=O)c3ccc(F)cc3)cc2CC1=O ... t
CNC(=O)c1ccc(Nc2ncc(C(F)(F)F)c(NCc3nccnc3N(C)S(C)(=O)=O)n2)cc1 ... t
COc1ccc(S(=O)(=O)Nc2cccc3c2O[C@@H](CN(C)CC2CC2)[C@@H](C)CN([C@H](C)CO)C3=O)cc1 ... f
C[C@@H]1CN([C@H](C)CO)C(=O)c2c(c3ccccc3n2C)-c2ccccc2CO[C@H]1CN(C)Cc1ccc2c(c1)OCO2 ... f

What is the recorded call for this molecule in the test? C[C@H](CO)N1C[C@H](C)[C@H](CN(C)Cc2ccccc2)OCCCC[C@H](C)Oc2ccc(NC(=O)CCC(F)(F)F)cc2C1=O
f

I would be grateful if you could indicate the recorded call for C[C@@H]1CCCCO[C@@H](CN(C)C(=O)Nc2ccc(F)cc2)[C@@H](C)CN([C@@H](C)CO)C(=O)c2cc(NC(=O)Nc3ccc(F)cc3)ccc2O1 .
f

---

Test system: HSkMC (human skeletal muscle cells)
Experiment: cytotoxicity call (relative viability < 0.9)
Settings: 10 µM
Out of some 39,000 compounds screened, about 1,500 (3.8%) were called active. The full list was thinned out, with actives kept by preference.
Write down one outcome, taken from true = active, false = inactive

See these solved cases before continuing.
C[C@@H]1CN([C@H](C)CO)C(=O)c2c(c3ccccc3n2C)-c2ccccc2CO[C@H]1CN(C)C(=O)Nc1cccc(Cl)c1Cl ... false
Cn1c(=O)[nH]c2nnc(-c3ccccn3)nc2c1=O ... false
C[C@H]1CN([C@@H](C)CO)C(=O)c2c(c3ccccc3n2C)-c2ccccc2CO[C@@H]1CN(C)C(=O)Nc1cccc(Cl)c1Cl ... true
Cn1nc(-c2ccccn2)nc2c(=O)n(C)c(=O)nc1-2 ... true
C[C@H](CO)N1C[C@H](C)[C@H](CN(C)C(=O)Nc2cccc3ccccc23)OCc2cnnn2CCCC1=O ... false

Please state the recorded outcome for this compound: N[C@@H](CC(=O)Nc1ccc(Cl)cc1)C(=O)O
false

Can you look up the reported call for C[C@@H]1CN([C@@H](C)CO)C(=O)c2c(c3ccccc3n2C)-c2ccccc2CO[C@H]1CN(C)C(=O)Nc1cccc(Cl)c1Cl for me?
false

Called result for COc1ccccc1NC(=O)N(C)C[C@@H]1OCc2ccccc2-c2c(n(C)c3ccccc23)C(=O)N([C@@H](C)CO)C[C@H]1C
false
